# systemTested: NAMPT enzyme (Homo sapiens (Human), UniProt P43490)
# Sequence (P43490 whole entry, species assumed): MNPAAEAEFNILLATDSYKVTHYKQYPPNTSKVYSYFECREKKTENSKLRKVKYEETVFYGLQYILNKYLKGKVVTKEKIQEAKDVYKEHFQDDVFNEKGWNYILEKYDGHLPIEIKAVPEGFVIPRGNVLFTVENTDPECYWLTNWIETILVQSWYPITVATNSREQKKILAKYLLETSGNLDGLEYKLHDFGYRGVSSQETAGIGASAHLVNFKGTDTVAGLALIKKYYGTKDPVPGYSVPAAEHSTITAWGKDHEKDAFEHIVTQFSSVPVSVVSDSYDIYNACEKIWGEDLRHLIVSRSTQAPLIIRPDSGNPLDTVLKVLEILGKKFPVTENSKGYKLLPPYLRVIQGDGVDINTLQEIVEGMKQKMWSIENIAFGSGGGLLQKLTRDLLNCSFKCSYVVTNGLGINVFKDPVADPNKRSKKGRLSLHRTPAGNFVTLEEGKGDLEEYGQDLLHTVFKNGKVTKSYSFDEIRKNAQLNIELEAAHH
# assayComment: Enzyme Assay and NMN Detection (NAMPT reaction, fluorescence detection of NMN)
# Type: biochemical
# details: Table B-2; NAMPT activation, NMN formation
endpointLabel: EC50

Reported EC50 ( O=C(NCc1ccncc1)Nc1ccc(S(=O)(=O)N(Cc2ccccc2)Cc2ccccc2)cc1 ) = > 20000 nM

Reported EC50 ( Cc1cc(NC(=O)c2ccc(NC(=O)NCc3ccncc3)cc2)on1 ) = 2000 to 5000 nM

Reported EC50 ( COc1ccc(CNC(=O)c2ccc(NC(=O)NCc3ccncc3)cc2)cc1 ) = > 20000 nM

Reported EC50 ( O=C(NCc1ccncc1)Nc1ccc(S(=O)(=O)NCc2ccccc2OC(F)(F)F)cc1 ) = < 100 nM

Reported EC50 ( CCN(Cc1ccccc1)S(=O)(=O)c1ccc(NC(=O)NCc2ccncc2)cc1 ) = < 100 nM

Reported EC50 ( CN(CC1CCC1)S(=O)(=O)c1ccc(NC(=O)NCc2ccncc2)cc1 ) = 100 to 2000 nM

Reported EC50 ( CCOC(=O)c1cccc(NC(=O)NCc2ccncc2)c1 ) = 5000 to 20000 nM

Reported EC50 ( CCOC(=O)c1ccc(NC(=O)NCc2ccnc(Cl)c2)cc1 ) = > 20000 nM

Reported EC50 ( O=C(NCc1ccncc1)Nc1ccc(C(=O)N2CCc3ccccc3C2)cc1 ) = 100 to 2000 nM

Reported EC50 ( Cc1ccc(NC(=O)NCc2ccncc2)cc1 ) = > 20000 nM

Reported EC50 ( CC(C)CN(C1CCCC1)S(=O)(=O)c1ccc(NC(=O)NCc2ccncc2)cc1 ) = < 100 nM

Reported EC50 ( COc1cccc(NC(=O)c2ccc(NC(=O)NCc3ccncc3)cc2)c1 ) = 100 to 2000 nM

Reported EC50 ( O=C(NCc1ccncc1)Nc1ccc(C(=O)Nc2ccc3c(c2)OCCO3)cc1 ) = 100 to 2000 nM

Reported EC50 ( O=C(NCc1ccncc1)Nc1ccc(S(=O)(=O)N2CCc3cccc(F)c3C2)cc1 ) = < 100 nM

----------
# systemTested: NAMPT enzyme (Homo sapiens (Human), UniProt P43490)
# assayComment: Enzyme Assay and NMN Detection (NAMPT reaction, fluorescence detection of NMN)
# Assay type: biochemical
# details: Table B-2; NAMPT activation, NMN formation
pEC50: −log10 of the molar value.
Please go through the items and note down their pEC50.

Reported pEC50 ( Cc1cccc2c1CN(S(=O)(=O)c1ccc(NC(=O)NCc3ccncc3)cc1)CC2 ) = > 7.00

Reported pEC50 ( O=C(NCc1ccncc1)Nc1ccc(S(=O)(=O)Nc2ccccc2)cc1 ) = 5.70 to 7.00

Reported pEC50 ( Cc1ccc(NS(=O)(=O)c2ccc(NC(=O)NCc3ccncc3)cc2)cc1 ) = 5.70 to 7.00

Reported pEC50 ( O=C(NCc1ccncc1)Nc1ccc(C(=O)NCC2CCCC2)cc1 ) = 4.70 to 5.30

Reported pEC50 ( O=C(NCc1ccncc1)Nc1ccc(S(=O)(=O)N(Cc2ccccc2)c2ccccc2)cc1 ) = 5.70 to 7.00

Reported pEC50 ( CCOc1ccc(NC(=O)c2ccc(NC(=O)NCc3ccncc3)cc2)cc1 ) = 5.70 to 7.00

Reported pEC50 ( O=C(NCc1ccncc1)Nc1cccc(S(=O)(=O)NCc2ccccc2)c1 ) = 4.70 to 5.30

Reported pEC50 ( O=C(NCc1ccncc1)Nc1ccc(S(=O)(=O)NCc2ccc(F)cc2)cc1 ) = 5.70 to 7.00

Reported pEC50 ( CN(C)CCNC(=O)c1ccc(NC(=O)NCc2ccncc2)cc1 ) = 4.70 to 5.30

Reported pEC50 ( CN(C)S(=O)(=O)c1ccc(CNS(=O)(=O)c2ccc(NC(=O)NCc3ccncc3)cc2)cc1 ) = 5.70 to 7.00

Reported pEC50 ( O=C(NCc1ccncc1)Nc1ccc(S(=O)(=O)c2ccc(Cl)cc2)cc1 ) = 5.70 to 7.00

Reported pEC50 ( CC(C)NS(=O)(=O)c1ccc(NC(=O)NCc2ccncc2)cc1 ) = 5.70 to 7.00

Reported pEC50 ( CCOC(=O)c1ccc(NC(=O)NCc2ccncc2F)cc1 ) = 5.70 to 7.00

Reported pEC50 ( O=C(NCc1ccncc1)Nc1ccc(C(=O)Nc2ccccn2)cc1 ) = 4.70 to 5.30

Reported pEC50 ( O=C(NCc1ccncc1)Nc1ccc(C(=O)Nc2ccc(F)cc2)cc1 ) = 5.70 to 7.00

Reported pEC50 ( O=C(NCc1ccncc1)Nc1cccc(C(=O)O)c1 ) = < 4.70

Reported pEC50 ( O=C(NCc1ccncc1)Nc1ccc(S(=O)(=O)c2ccccc2)cc1 ) = > 7.00

Reported pEC50 ( COC(=O)c1cccc(CNS(=O)(=O)c2ccc(NC(=O)NCc3ccncc3)cc2)c1 ) = 5.70 to 7.00

Reported pEC50 ( O=C(NCc1ccncc1)Nc1ccc(C(=O)NC2CCCCC2)cc1 ) = 5.30 to 5.70

Reported pEC50 ( CN(C)c1cccc(CNS(=O)(=O)c2ccc(NC(=O)NCc3ccncc3)cc2)c1 ) = 5.70 to 7.00

Reported pEC50 ( CN(C)c1ccc(NC(=O)c2ccc(NC(=O)NCc3ccncc3)cc2)cc1 ) = 5.70 to 7.00

Reported pEC50 ( O=C(NCc1ccncc1)Nc1ccc(C(=O)NCCN2CCOCC2)cc1 ) = 5.70 to 7.00

----------
# systemTested: NAMPT enzyme (Homo sapiens (Human), UniProt P43490)
# assayComment: Enzyme Assay and NMN Detection (NAMPT reaction, fluorescence detection of NMN)
# Format: biochemical
# details: Table B-5; NAMPT activation, NMN formation
# Procedure: NAMPT reaction was performed in 50 mM HEPES, pH 7.5, containing 5 mM MgCl2, 0.1% Prionex, 0.005% Tween 20, and 1 mM TCEP at room temperature in Greiner 384-well black polypropylene plates. […] The fluorescence (ex380/em460) was measured following another short incubation and 30 min incubation. The increased concentration of NMN was determined from a calibration curve obtained at the time of experiment.
endpointLabel: EC50

Reported EC50 ( O=C(NCc1cnco1)Nc1ccc(NS(=O)(=O)Cc2ccc(Cl)c(Cl)c2)cc1 ) = < 100 nM

Reported EC50 ( O=C(NCc1cnco1)Nc1ccc(-c2n[nH]c3ccccc23)cc1 ) = 100 to 2000 nM

Reported EC50 ( COc1ccc2c(c1)c(-c1ccc(NC(=O)NCc3cnco3)cc1)nn2C ) = > 20000 nM

Reported EC50 ( COc1cccc(S(=O)(=O)c2ccc(NC(=O)NCc3cnco3)cc2)c1 ) = 100 to 2000 nM

Reported EC50 ( O=C(NCc1cnco1)Nc1ccc(S(=O)(=O)c2nccs2)cc1 ) = 100 to 2000 nM

----------
# systemTested: NAMPT enzyme (Homo sapiens (Human))
# assayComment: Enzyme Assay and NMN Detection (NAMPT reaction, fluorescence detection of NMN)
# Assay type: biochemical
# details: Table B-6; NAMPT activation, NMN formation
pEC50: −log10 of the molar value.
Please go through the items and note down their pEC50.

Reported pEC50 ( Cn1nc(-c2ccc(NC(=O)NCc3ccncc3)cc2)c2ccncc21 ) = 5.70 to 7.00

Reported pEC50 ( N#Cc1cc(NC(=O)NCc2ccncc2)ccc1S(=O)(=O)c1cc(F)cc(F)c1 ) = 5.70 to 7.00

Reported pEC50 ( CN1CCC(S(=O)(=O)c2ccc(NC(=O)NCc3ccncc3)cc2)CC1 ) = 5.30 to 5.70

Reported pEC50 ( O=C(NCc1ccncc1)Nc1ccc(S(=O)(=O)c2ccccc2F)cc1 ) = 5.70 to 7.00

Reported pEC50 ( COc1ccc(-c2ccccc2S(=O)(=O)c2ccc(NC(=O)NCc3ccncc3)cc2)cn1 ) = 4.70 to 5.30

Reported pEC50 ( O=C(NCc1ccncc1)Nc1ccc(S(=O)(=O)c2ccncc2)cc1 ) = 5.70 to 7.00

Reported pEC50 ( COc1cccc(-c2ccccc2S(=O)(=O)c2ccc(NC(=O)NCc3ccncc3)cc2)c1 ) = 5.70 to 7.00

Reported pEC50 ( COc1ccc(S(=O)(=O)c2ccc(NC(=O)NCc3ccncc3)cc2)cn1 ) = 5.70 to 7.00

Reported pEC50 ( CC(C)N1CCC(S(=O)(=O)c2ccc(NC(=O)NCc3ccncc3)cc2)CC1 ) = 5.70 to 7.00

Reported pEC50 ( COc1ccc(-c2ccccc2S(=O)(=O)c2ccc(NC(=O)NCc3ccncc3)cc2)cc1 ) = 4.70 to 5.30

Reported pEC50 ( O=C(NCc1ccncc1)Nc1ccc(S(=O)(=O)c2cnccn2)cc1 ) = 5.70 to 7.00

Reported pEC50 ( O=C(NCc1cn[nH]c1)Nc1ccc(S(=O)(=O)C2CCN(C3CCOCC3)CC2)cc1 ) = 5.70 to 7.00

Reported pEC50 ( Cn1nc(-c2ccc(NC(=O)NCc3ccncc3)cc2)c2ccccc21 ) = 5.70 to 7.00

Reported pEC50 ( Cn1nc(-c2ccc(NC(=O)NCc3ccncc3)cc2)c2cc(Cl)ccc21 ) = 5.30 to 5.70

Reported pEC50 ( N#Cc1cccc(-c2ccccc2S(=O)(=O)c2ccc(NC(=O)NCc3ccncc3)cc2)c1 ) = 5.30 to 5.70

Reported pEC50 ( O=C(NCc1ccncc1)Nc1ccc(-c2nc3ccccc3s2)cc1 ) = 4.70 to 5.30

Reported pEC50 ( O=C(NCc1ccncc1)Nc1ccc(S(=O)(=O)c2ccc(F)cc2F)cc1 ) = 5.70 to 7.00

Reported pEC50 ( O=C(NCc1ccncc1)Nc1ccc(S(=O)(=O)c2cc(F)cc(F)c2)cc1 ) = 5.70 to 7.00

Reported pEC50 ( O=C(NCc1ccncc1)Nc1ccc(S(=O)(=O)c2ccccc2-c2ccccc2Cl)cc1 ) = 5.70 to 7.00

Reported pEC50 ( O=C(NCc1ccncc1)Nc1ccc(S(=O)(=O)c2ccc(Cl)c(Cl)c2)cc1 ) = 5.70 to 7.00

Reported pEC50 ( Cn1cc(S(=O)(=O)c2ccc(NC(=O)NCc3ccncc3)cc2)cn1 ) = 5.70 to 7.00

Reported pEC50 ( N#Cc1ccc(CS(=O)(=O)Nc2ccc(NC(=O)NCc3ccncc3)cc2)cc1 ) = 5.70 to 7.00

Reported pEC50 ( O=C(NCc1ccncc1)Nc1ccc(S(=O)(=O)c2cccc(I)c2)cc1 ) = > 7.00

Reported pEC50 ( Cc1ccc(S(=O)(=O)c2ccc(NC(=O)NCc3ccncc3)cc2)cn1 ) = 5.70 to 7.00

Cited source for all entries: patent US11452717B2
